// data source = patent US20260242485A1

target: T1, human CD16A-158F expressed on CHO-K1 cells (human, UniProt P08637 17-254); experiment: flow cytometry, CHO-K1-hCD16A-158F cells, Alexa Fluor 647 anti-human IgG Fc, geometric mean
T1 construct: whole, on cells
T1 sequence (P08637 17-254): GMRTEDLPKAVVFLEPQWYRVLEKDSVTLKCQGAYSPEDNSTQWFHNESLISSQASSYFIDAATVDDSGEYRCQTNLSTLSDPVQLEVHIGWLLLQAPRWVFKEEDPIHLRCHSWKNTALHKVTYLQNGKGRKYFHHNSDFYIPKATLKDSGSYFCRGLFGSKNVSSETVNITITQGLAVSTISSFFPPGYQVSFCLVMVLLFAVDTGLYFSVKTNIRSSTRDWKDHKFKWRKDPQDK
measured.quantity: EC50 (read off the curve)

Query: Request the reported EC50 (read off the curve) associated with 45H6E8-z20 (antibody, human IgG1, V domains shown, Human IgG1 LALAPG constant region; also called HU-VH1-7 / HU-VL1-3) VH: QVQLVQSGAEVKKPGASVKVSCKVSGYTLTDYYMQWVRQAPGKGLEWMGWIDPENGDTEYAPKFQGRATMTADTSTDTAYMELSSLRSEDTAVYYCTTGGNYVDWGQGTTVTVSS VL: DIQMTQSPSFLSASVGDRVTITCKASQNVGTAVAWYQQKPGKAPKLLIYSASNRYTGVPDRFSGSGSGTDFTLTISSLQPEDFATYFCQQYSSYPLLTFGQGTRLEIK
Result: ~0.4 nM
